System: HCT-15 colon
measurementNotes: NCI tumour cell line growth inhibition, 48 h
measurementName: GI50

Problem: API: value(readout= GI50, system= HCT-15 colon, query= "CCN(CC)CCCCCCCNc1c2ccc(Cl)cc2nc2ccc(OC)cc12" )
Result: 0.997 µM

Problem: API: value(readout= GI50, system= HCT-15 colon, query= "C[C@]12CC[C@@H]3c4ccc(O)cc4CC[C@H]3[C@@H]1CC[C@@H]2NS(=O)(=O)Cc1ccc(Cl)cc1" )
Result: 2.33 µM

Problem: API: value(readout= GI50, system= HCT-15 colon, query= "C=C(CN1CCc2ccccc2C1)c1ccc(C(=O)Nc2ccc(N)cc2)cc1" )
Result: 32.2 µM

Problem: API: value(readout= GI50, system= HCT-15 colon, query= "O=C(NOCC1CC1)c1ccc(F)c(F)c1Nc1ccc(I)cc1Cl" )
Result: 1.57 µM

Problem: API: value(readout= GI50, system= HCT-15 colon, query= "C/C=C(\C)C(=O)O[C@H]1C=CC(=O)O[C@H]1CNC(=O)[C@H](C)O" )
Result: 15.6 µM

###

Tested on: MCF7 breast
measurementNotes: NCI tumour cell line growth inhibition, 48 h
Please respond with reported log10 of TGI for every item in the list.
Lab note - TGI converted to log10 from values in µM.

Problem: API: value(readout= log10 of TGI, system= MCF7 breast, query= "Oc1cc2cccc[n+]2c2cccc(Cl)c12" )
Result: 1.56

Problem: API: value(readout= log10 of TGI, system= MCF7 breast, query= "CN(C)CCNc1ccc2c(=O)n(CCN(C)C)c(=O)n3c4ccc(N)cc4c(=O)c1c23" )
Result: -0.62

Problem: API: value(readout= log10 of TGI, system= MCF7 breast, query= CC(NNC(=S)N1CCCCCC1)c1ccc2ccccc2n1 (stereo not drawn) )
Result: 1.18

Problem: API: value(readout= log10 of TGI, system= MCF7 breast, query= "COC(=O)/C(=C\c1c(C)[nH]c2ccccc12)S(=O)(=O)c1ccccc1" )
Result: 1.10

Problem: API: value(readout= log10 of TGI, system= MCF7 breast, query= "O=[N+]([O-])C(=C(N1CCOCC1)N1CCOCC1)/C(Cl)=C(\Cl)[N+](=O)[O-]" )
Result: 0.89

Problem: API: value(readout= log10 of TGI, system= MCF7 breast, query= "C/C=C(\C)C(=O)O[C@H]1C=CC(=O)O[C@H]1CNC(=O)[C@H](C)O" )
Result: 1.63

###

Tested on: PC-3 prostate
measurementNotes: NCI tumour cell line growth inhibition, 48 h
measurementName: TGI

Problem: Value lookup for TGI; key = "CC1(C)C(=O)N=C(N)N1C(=O)OCc1ccccc1"
Result: > 100 µM

Problem: Value lookup for TGI; key = "N#CS/C(Cl)=C(/C(Cl)=C(Cl)Cl)[N+](=O)[O-]"
Result: > 100 µM

Problem: Value lookup for TGI; key = CC1[C@@H](OCc2ccccc2)COC(=O)N1Cc1ccccc1 (stereo not given in full)
Result: > 100 µM

Problem: Value lookup for TGI; key = "Nc1nc(SCc2ccccc2)c2ncn(Cc3ccccc3)c2n1"
Result: > 100 µM

Problem: Value lookup for TGI; key = CC1N(C)C(=O)OC12CCN(CCCC(=O)c1ccc(F)cc1)CC2 (stereo not given)
Result: > 100 µM

Problem: Value lookup for TGI; key = "O=C(/C=C/c1ccc(O)cc1)NCCc1ccc(O)cc1"
Result: > 12.5 µM

Problem: Value lookup for TGI; key = CC(C)CCC[C@@H](C)C1CCC2[C@@H]3CCC4CC(CCC=C(c5cc(Cl)c(OC(=O)c6ccccc6)c(C(=O)O)c5)c5cc(Cl)c(OC(=O)c6ccccc6)c(C(=O)O)c5)CC[C@]4(C)C3CC[C@@]21C (stereo not given in full)
Result: > 100 µM

Problem: Value lookup for TGI; key = CC(=O)OC1COC(n2c(N)c(C#N)c(C)c(C#N)c2=S)C(OC(C)=O)C1OC(C)=O (stereo not given)
Result: > 100 µM

Problem: Value lookup for TGI; key = "Cc1cc2c(F)c(Oc3ncnn4cc(OC[C@@H](C)OC(=O)[C@H](C)N)c(C)c34)ccc2[nH]1"
Result: 23.9 µM

Problem: Value lookup for TGI; key = O=[N+]([O-])c1cccc2nccc(NCC(O)CO)c12 (stereo not given)
Result: 38.5 µM

Problem: Value lookup for TGI; key = "O=C(Oc1ccc(CCl)cc1)c1ccccc1"
Result: 0.332 µM

Problem: Value lookup for TGI; key = "CCOC(=O)c1c(NC(=O)Nc2ccccc2)c(C(N)=O)c2n1CCCCC2"
Result: > 100 µM

Problem: Value lookup for TGI; key = "CNC(=O)CCNC(=O)CCC(=O)OC"
Result: > 100 µM

Problem: Value lookup for TGI; key = "O=C1CCC2SC1CCC2=O"
Result: > 100 µM

Problem: Value lookup for TGI; key = "Cc1sc2nc3n(c(=O)c2c1C)N=C(c1ccc(Cl)cc1)CS3"
Result: > 100 µM

Problem: Value lookup for TGI; key = "C[N+](C)(CCCCCC[N+](C)(C)CCCN1C(=O)c2cc3ccccc3cc2C1=O)CCCN1C(=O)c2ccccc2C1=O"
Result: > 37.5 µM

Problem: Value lookup for TGI; key = "COc1ccc(-c2nc(-c3cn(C)c4ncccc34)cs2)cc1"
Result: > 100 µM

Problem: Value lookup for TGI; key = "O=C(Nc1ncc(Cc2ccccc2Cl)s1)c1ccc2c(c1)OCCO2"
Result: > 100 µM

Problem: Value lookup for TGI; key = NC1=NC(OCC2(CO)CCC2)C=C(NCC2(CO)CCC2)N1 (stereo not given)
Result: > 100 µM

Problem: Value lookup for TGI; key = "C=C(C)[C@@H]1CC[C@]2(C(=O)O)CC[C@]3(C)[C@H](CC[C@@H]4[C@@]5(C)CC[C@H](C(=O)/C=C/c6ccc(O)cc6)C(C)(C)[C@@H]5CC[C@]43C)[C@@H]12"
Result: 19 µM

Problem: Value lookup for TGI; key = O=C1CCCc2cc3c(cc21)CCC3C(=O)O (stereo not given)
Result: > 100 µM

Problem: Value lookup for TGI; key = "O=C1C=Cc2ccccc2/C1=C/c1[nH]c(=O)[nH]c1O"
Result: > 100 µM

Problem: Value lookup for TGI; key = "CC(=O)O[C@H]1C(=O)[C@@]2(C)[C@H]([C@H](OC(=O)C3CCCCC3)[C@]3(O)C[C@H](OC(=O)[C@H](O)[C@@H](NC(=O)C4CCCCC4)C4CCCCC4)C(C)=C1C3(C)C)[C@]1(OC(C)=O)CO[C@@H]1C[C@@H]2O"
Result: 1.96 µM

Problem: Value lookup for TGI; key = NC1CC(=O)c2cc(Br)sc21 (stereo not given)
Result: > 100 µM

Problem: Value lookup for TGI; key = "C/C=C(/C)C(=O)O[C@H]1C(C)=C[C@]23C(=O)[C@@H](C=C(COC(C)=O)[C@@H](O)[C@]12O)[C@H]1[C@@H](C[C@H]3C)[C@@]1(C)OC(=O)/C(C)=C\C"
Result: 4.75 µM

Problem: Value lookup for TGI; key = "O=[N+]([O-])C(=C(N1CCOCC1)N1CCOCC1)/C(Cl)=C(\Cl)[N+](=O)[O-]"
Result: 32.6 µM

Problem: Value lookup for TGI; key = C=C1C(=O)OC2C1C(OC(=O)/C(C)=C/C)CC1(C)C(=O)CCC(=C)C21 (stereo not given)
Result: 22.9 µM

Problem: Value lookup for TGI; key = "O=C(O)CN1CCN(CC(=O)O)CCN(CC(=O)O)CCN(CC(=O)O)CC1"
Result: > 100 µM

Problem: Value lookup for TGI; key = CCOC(=O)n1cncc1CC(NC(=O)Cc1c(C(=O)C=C(C)C)[nH]c2ccccc12)C(=O)OC (stereo not given)
Result: 33.6 µM

Problem: Value lookup for TGI; key = "COc1ccc2[nH]c(Cl)c(/C=C3/C(=O)N(C)c4ccccc43)c2c1"
Result: > 100 µM

Problem: Value lookup for TGI; key = "CC1(C)OCC(CO)(Nc2nc(N3CC3)nc(N3CC3)n2)CO1"
Result: > 100 µM

Problem: Value lookup for TGI; key = "O=C(Cc1ccccc1)c1ccc2[nH]c(=O)oc2c1"
Result: > 100 µM

Problem: Value lookup for TGI; key = COC(=O)C(Nc1ccc(OC)cc1)c1ccccc1 (stereo not given)
Result: > 100 µM

Problem: Value lookup for TGI; key = "Cc1cc(S(=O)(=O)Nc2nnc(-c3ccccc3)c(-c3ccccc3)n2)c(SCc2ccccc2)cc1Cl"
Result: 58 µM

Problem: Value lookup for TGI; key = "N=C1C(=N)c2ccccc2-c2ccccc21"
Result: 2.88 µM

###

Please respond with reported GI50 for every item in the list.
Test system: UACC-257 melanoma
measurementNotes: NCI tumour cell line growth inhibition, 48 h

Problem: API: value(readout= GI50, system= UACC-257 melanoma, query= "COc1ccc(-c2nc(-c3ccccc3)c(-c3ccccc3)n2C2CC2)cc1OC1CCCC1" )
Result: > 165 µM

Problem: API: value(readout= GI50, system= UACC-257 melanoma, query= CCN(CC)CCOc1ccc(/C=C2\CC3C4CC=C5C[C@@H](N6CCCC6)CC[C@]5(C)C4CC[C@]3(C)[C@H]2O)cc1OC (some centres undefined) )
Result: 6.82 µM

Problem: API: value(readout= GI50, system= UACC-257 melanoma, query= "COc1ccc2[nH]c(Cl)c(/C=C3/C(=O)N(C)c4ccccc43)c2c1" )
Result: > 100 µM

Problem: API: value(readout= GI50, system= UACC-257 melanoma, query= "O=C1C=Cc2ccccc2/C1=C/c1[nH]c(=O)[nH]c1O" )
Result: 2.93 µM

Problem: API: value(readout= GI50, system= UACC-257 melanoma, query= "S=C(Nc1ccc(Cl)cc1)Nc1ccc(-c2nc3ccccc3[nH]2)cc1" )
Result: 14.7 µM

Problem: API: value(readout= GI50, system= UACC-257 melanoma, query= "CC1(C)N=C(N)N=C(N)N1c1cc(Cl)ccc1Cl" )
Result: > 100 µM

Problem: API: value(readout= GI50, system= UACC-257 melanoma, query= "OCCCCC#Cc1ccccc1C#Cc1ccccc1C(F)(F)F" )
Result: 17.7 µM

Problem: API: value(readout= GI50, system= UACC-257 melanoma, query= "CCOC(=O)Oc1c(OC)cc(C(=O)O[C@@H]2C[C@@H]3CN4CCc5c([nH]c6cc(OC)ccc56)[C@H]4C[C@@H]3[C@H](C(=O)OC)[C@H]2OC)cc1OC" )
Result: 12.4 µM

Problem: API: value(readout= GI50, system= UACC-257 melanoma, query= "CCN(CC)CCCCCCCNc1c2ccc(Cl)cc2nc2ccc(OC)cc12" )
Result: 1.27 µM
